- protocol-summary: qHTS for Inhibitors of human tyrosyl-DNA phosphodiesterase 1 (TDP1): qHTS in cells in absence of CPT; note: nearly all actives have a fitted effect of over 55% in size; note: potency is the fitted concentration of half-maximal effect
- conditions: DT40 Tdp1-/- hTDP1 cells, no CPT, ATP luminescence, 48 h
Hit rate of the full screen: of about 420,000 compounds, about 64,000 (15%) were called active. Roughly 27% stayed inconclusive and do not appear here. These entries were drawn from the full list.
property-measured: Potency

Previously resolved entries follow.
1. CCOC(=O)C1=C(c2ccc(OC)cc2)C(=O)c2ccccc2C1=O : 1.46 µM (active)
2. Cc1nnc(SCC(=O)NCc2cccs2)[nH]c1=O : inactive
3. O=C(Nc1c(Cl)cccc1Cl)C1CCC1 : inactive
4. O=C(NCC(=O)N(CC1CCCO1)C(C(=O)NC1CCCCC1)c1ccccc1)c1ccco1 (stereo unspecified) : inactive
5. CCOC(=O)c1cc2n(c1N)-c1ccccc1C2=O : inactive

# context switch: different molecule, same Potency
Query: Potency; subject: COc1ccc(OCCCON2C(=O)c3ccccc3C2=O)cc1
Response: inactive

---

- protocol-summary: qHTS for Inhibitors of human tyrosyl-DNA phosphodiesterase 1 (TDP1): qHTS in cells in absence of CPT; note: nearly all actives have a fitted effect of over 55% in size
- conditions: DT40 Tdp1-/- hTDP1 cells, no CPT, ATP luminescence, 48 h
Hit rate of the full screen: of about 420,000 compounds, about 64,000 (15%) were called active. About 27% were inconclusive and are not listed. Calls come from the whole dose curve; as a rule, active = well fitted inhibition curve with a large enough effect; inconclusive = small, poorly fitted or top-dose-only effect; inactive = flat fitted curve, though single readings scatter. These entries were drawn from the full list.
Form entry, call: pick from Yes (active), No (inactive)

A selection of reference data follows.
1. CC1Cc2[nH][nH]c(=O)c2C(C2CCCC2)O1 (stereo not given) : No
2. COc1ccccc1CNC(=O)Cn1nc(C)c2nn(-c3ccc(Cl)cc3)c(C)c2c1=O : Yes
3. C=CCOC(=O)N1CCC2CC1c1cc(-c3ccc(OC)cc3)ccc12 (stereo not given) : Yes
4. Cc1nnc(SCC(=O)NCc2ccccc2Cl)c2nn(-c3ccccc3)c(C)c12 : Yes
5. COc1ccc(-c2ccc3c(c2)C2CC3CCN2CCC#N)cc1 (stereo not given) : Yes

Query: // return assay outcome for COc1ccc(OCC(=O)NNC(=O)C2CCC2)cc1
Response: No

Query: // return assay outcome for COc1ccc(-n2nnnc2SCC(=O)NCc2cccs2)cc1
Response: No

Query: // return assay outcome for COc1ccccc1CNC(=O)COC(=O)c1sc(C)nc1C
Response: No

Query: // return assay outcome for C/C(=C\C(=O)c1cccnc1)Nc1ccc(C)c(C)c1
Response: No

Query: // return assay outcome for CCCC(=O)n1nc(-c2ccccc2)nc1N
Response: No

---

- protocol-summary: qHTS for Inhibitors of human tyrosyl-DNA phosphodiesterase 1 (TDP1): qHTS in cells in absence of CPT; note: nearly all actives have a fitted effect of over 55% in size
- conditions: DT40 Tdp1-/- hTDP1 cells, no CPT, ATP luminescence, 48 h
About 64,000 (15%) of roughly 420,000 compounds were called active. About 27% were inconclusive and are not listed. The call rests on the fitted dose curve; in most records, active means well fitted inhibition curve with a large enough effect; inconclusive means small, poorly fitted or top-dose-only effect; inactive means flat fitted curve, though single readings scatter. A selection follows.
Form entry, call: pick from Yes (active), No (inactive)

A selection of reference data follows.
1. O=c1[nH][nH]c(=O)c2cc(N3CCCC3)ccc12 : No
2. CCc1ccc(S(=O)(=O)c2nnn3c2nc(NCc2ccccc2OC)c2cc(Cl)ccc23)cc1 : No
3. O=C(NC1CCC(O)CC1)c1ccc(S(=O)(=O)NCc2ccco2)cc1 (stereo unspecified) : No
4. COc1cccc(CNc2nc(NCc3ccccc3OC)nc3ccsc23)c1 : Yes

Query: // return assay outcome for COCCNc1nc(NCc2ccc(NC(C)=O)cc2)c2sccc2n1
Response: No

Query: // return assay outcome for Cc1cc(C(=O)O)c(S(C)(=O)=O)s1
Response: No
